System: P93_24
protocol-text: qHTS profiling for inhibitors of Plasmodium falciparum proliferation (AID 504749); also: nearly all actives have a fitted effect of over 60% in size
condition-parameters: P. falciparum in erythrocytes, SYBR Green DNA, 72 h; series mostly up to 28.7 µM
Procedure: NIH National Institute of Allergy and Infectious Diseases [NIAID] NIH Chemical Genomics Center [NCGC] […] Because mature erythrocytes lack DNA, only Plasmodium-derived DNA is detected. NCGC Assay Protocol Summary: The SYBR Green viability assay was adapted from a method described previously (Plouffe et al., 2008). […] The following morning, fluorescence intensity at 485(14) nm excitation and 535(25) nm emission wavelengths was measured on an EnVision (Perkin Elmer) plate reader. […]
Inconclusive results are not listed. Calls of active or inactive are those of the source. Calls follow the shape of the dose curve; as a rule, active = well fitted inhibition curve with a large enough effect; inconclusive = small, poorly fitted or top-dose-only effect; inactive = flat fitted curve, though single readings scatter.
assay-metric: outcome

| molecule | observed-measurement |
| --- | --- |
| O=c1c(-c2ccc(O)cc2)coc2cc(O)cc(O)c12 | inactive |
| CC(C)Cc1ccc(C(C)C(=O)O)cc1 (stereo not drawn) | inactive |
| CC(C)(C)C(=O)Oc1ccc(S(=O)(=O)Nc2ccccc2C(=O)NCC(=O)O)cc1 | inactive |
